# measured.on: T1, EsCas13d, nuclease-dead (Eubacterium siraeum, UniProt B0MS50, R295A;H300A;R849A;H854A)
# T1 sequence: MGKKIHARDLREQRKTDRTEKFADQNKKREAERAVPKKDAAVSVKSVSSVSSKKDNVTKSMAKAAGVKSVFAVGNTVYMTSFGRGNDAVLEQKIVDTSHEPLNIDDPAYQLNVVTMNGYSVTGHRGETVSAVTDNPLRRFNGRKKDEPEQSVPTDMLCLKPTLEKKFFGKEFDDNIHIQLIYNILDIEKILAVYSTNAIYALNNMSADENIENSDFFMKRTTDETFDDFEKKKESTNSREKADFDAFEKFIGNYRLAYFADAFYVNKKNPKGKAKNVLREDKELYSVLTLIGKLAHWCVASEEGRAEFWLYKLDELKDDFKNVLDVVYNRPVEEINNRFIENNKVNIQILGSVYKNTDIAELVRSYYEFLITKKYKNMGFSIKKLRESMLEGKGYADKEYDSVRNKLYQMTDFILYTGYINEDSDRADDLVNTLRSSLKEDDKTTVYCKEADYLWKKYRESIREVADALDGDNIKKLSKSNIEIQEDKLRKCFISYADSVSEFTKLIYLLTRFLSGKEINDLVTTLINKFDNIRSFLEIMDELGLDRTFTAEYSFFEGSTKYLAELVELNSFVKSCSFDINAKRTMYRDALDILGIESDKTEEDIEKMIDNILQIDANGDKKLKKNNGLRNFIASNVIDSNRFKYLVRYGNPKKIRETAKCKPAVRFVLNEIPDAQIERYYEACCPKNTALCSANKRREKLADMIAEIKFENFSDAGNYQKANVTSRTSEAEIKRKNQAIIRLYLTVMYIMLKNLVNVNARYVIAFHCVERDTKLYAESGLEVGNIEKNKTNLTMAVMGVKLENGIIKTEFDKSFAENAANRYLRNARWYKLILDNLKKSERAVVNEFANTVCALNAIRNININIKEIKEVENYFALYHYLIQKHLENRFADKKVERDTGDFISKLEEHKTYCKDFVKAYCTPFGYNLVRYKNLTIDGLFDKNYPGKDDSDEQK
# method.description: crRNA (strand 1, pre-loaded); Mg2+; 40 mM Tris-HCl pH 7.5, 150 mM NaCl, 6 mM MgCl2, 1 mM DTT, 0.1% Tween-20, 0.2 mg/ml BSA; 25 C; 10 min per concentration, then washed
# experimental.setup: tags: His6-TwinStrep-SUMO cleaved; N-terminal SNAP kept (SNAP-Surface 488); label: 3' end held by stalled T7 RNA polymerase
pKd: −log10 of the molar value.
Consider the following binders and their measured pKd readings.

[
  {
    "binder": "target 3 insU 3' of 5,insA 3' of 4 (mixed) RNA 1: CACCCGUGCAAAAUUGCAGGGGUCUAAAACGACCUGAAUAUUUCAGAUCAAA RNA 2: GGGAAUGGAUCCACAUCUACGAAUUCGUUUUUGAUCUGAAAUAUUCAUGAGUCUGCAGAUCGGAAGAGCACACGU",
    "pKd": 8.00
  },
  {
    "binder": "target 2 MT 5'PFS UGA 3'PFS AAU (mixed) RNA 1: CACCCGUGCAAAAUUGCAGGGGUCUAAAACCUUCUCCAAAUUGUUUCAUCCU RNA 2: GGGAAUGGAUCCACAUCUACGAAUUCUGAAGGAUGAAACAAUUUGGAGAAGAAUAGAUCGGAAGAGCACACGU",
    "pKd": 8.21
  },
  {
    "binder": "target 2 MT 5'PFS CAG 3'PFS AAA (mixed) RNA 1: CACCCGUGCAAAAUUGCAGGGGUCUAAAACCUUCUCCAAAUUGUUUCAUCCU RNA 2: GGGAAUGGAUCCACAUCUACGAAUUCCAGAGGAUGAAACAAUUUGGAGAAGAAAAGAUCGGAAGAGCACACGU",
    "pKd": 8.12
  },
  {
    "binder": "target 1 MT 5'PFS AAC 3'PFS UAU (mixed) RNA 1: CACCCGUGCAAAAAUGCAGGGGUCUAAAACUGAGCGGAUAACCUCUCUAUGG RNA 2: GGGAAUGGAUCCACAUCUACGAAUUCAACCCAUAGAGAGGUUAUCCGCUCAUAUAGAUCGGAAGAGCACACGU",
    "pKd": 7.82
  },
  {
    "binder": "target 1 MT 5'PFS CUA 3'PFS ACA (mixed) RNA 1: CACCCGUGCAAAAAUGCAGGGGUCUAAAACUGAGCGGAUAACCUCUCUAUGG RNA 2: GGGAAUGGAUCCACAUCUACGAAUUCCUACCAUAGAGAGGUUAUCCGCUCAACAAGAUCGGAAGAGCACACGU",
    "pKd": 8.02
  },
  {
    "binder": "target 1 A1U,U11C (mixed) RNA 1: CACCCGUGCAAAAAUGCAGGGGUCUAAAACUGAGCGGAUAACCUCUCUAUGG RNA 2: GGGAAUGGAUCCACAUCUACGAAUUCGUACCAUAGAGAGGCUAUCCGCUCUCCGAGAUCGGAAGAGCACACGU",
    "pKd": 8.03
  }
]
